All values here come from ChEMBL document CHEMBL1143998.

testedSystem: Albumin (Homo sapiens, UniProt P02768)
Sequence (P02768 whole entry): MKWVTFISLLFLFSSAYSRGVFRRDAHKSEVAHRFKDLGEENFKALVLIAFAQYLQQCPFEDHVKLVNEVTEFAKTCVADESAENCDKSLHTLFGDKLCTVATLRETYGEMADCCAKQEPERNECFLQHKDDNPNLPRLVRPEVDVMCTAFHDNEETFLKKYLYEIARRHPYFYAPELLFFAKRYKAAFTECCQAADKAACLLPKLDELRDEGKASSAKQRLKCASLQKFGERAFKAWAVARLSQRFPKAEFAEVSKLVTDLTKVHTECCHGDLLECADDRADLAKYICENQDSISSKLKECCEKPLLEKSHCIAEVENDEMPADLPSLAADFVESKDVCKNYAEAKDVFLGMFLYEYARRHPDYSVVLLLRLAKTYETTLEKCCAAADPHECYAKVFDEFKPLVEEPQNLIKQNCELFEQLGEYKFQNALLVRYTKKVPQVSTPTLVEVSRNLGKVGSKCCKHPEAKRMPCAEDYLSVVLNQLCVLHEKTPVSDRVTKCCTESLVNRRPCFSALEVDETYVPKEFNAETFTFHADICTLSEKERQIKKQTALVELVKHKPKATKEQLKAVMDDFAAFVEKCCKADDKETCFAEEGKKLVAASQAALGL
testName: Binding affinity to defatted human serum albumin
Format: ADME
cond: isolated protein
measurementName: Activity (%)

Solved entries (count: 3):
Cc1cn([C@H]2C[C@H](N=[N+]=[N-])[C@@H](COC(=O)C(=O)N[C@@H](CC(C)C)C(=O)O)O2)c(=O)[nH]c1=O; 26.5
Cc1cn([C@H]2C[C@H](N=[N+]=[N-])[C@@H](COC(=O)C(=O)N[C@H](C(=O)O)C(C)C)O2)c(=O)[nH]c1=O; 17.4
Cc1cn([C@H]2C[C@H](N=[N+]=[N-])[C@@H](COC(=O)C(=O)N[C@@H](Cc3ccccc3)C(=O)O)O2)c(=O)[nH]c1=O; 13.6

1 = Cc1cn([C@H]2C[C@H](N=[N+]=[N-])[C@@H](COC(=O)C(=O)O)O2)c(=O)[nH]c1=O
2 = Cc1cn([C@H]2C[C@H](N=[N+]=[N-])[C@@H](COC(=O)c3ccncc3)O2)c(=O)[nH]c1=O
**Q:** Hi team, can someone confirm which has the larger Activity: 1 or 2 ? Thanks. Which one? Tell me its label.
**A:** 1
(1: 47%, 2: 19.8%)

---

testedSystem: Albumin (Homo sapiens, UniProt P02768)
testName: Binding affinity to defatted human serum albumin
Assay type: ADME
cond: isolated protein
measurementName: Activity (%)

A = Cc1cn([C@H]2C[C@H](N=[N+]=[N-])[C@@H](COC(=O)C(=O)N[C@@H](Cc3c[nH]c4ccccc34)C(=O)O)O2)c(=O)[nH]c1=O
B = Cc1cn([C@H]2C[C@H](N=[N+]=[N-])[C@@H](COC(=O)C(=O)N3CCC[C@H]3C(=O)O)O2)c(=O)[nH]c1=O
**Q:** Hi team, can someone confirm which has the larger Activity: A or B ? Thanks. Which one? Tell me its label.
**A:** A
(A: 20.5%, B: 11.9%)

---

testedSystem: Albumin (Homo sapiens, UniProt P02768)
testName: Binding affinity to defatted human serum albumin in presence of salicylic acid
Format: ADME
cond: isolated protein
measurementName: Activity (%)

Solved entries (count: 5):
Cc1cn([C@H]2C[C@H](N=[N+]=[N-])[C@@H](COC(=O)C(=O)N[C@@H](Cc3ccc(O)cc3)C(=O)O)O2)c(=O)[nH]c1=O; 9.4
Cc1cn([C@H]2C[C@H](N=[N+]=[N-])[C@@H](COC(=O)C(=O)N[C@@H](Cc3ccccc3)C(=O)O)O2)c(=O)[nH]c1=O; 8.3
Cc1cn([C@H]2C[C@H](N=[N+]=[N-])[C@@H](COC(=O)C(=O)N3CCC[C@H]3C(=O)O)O2)c(=O)[nH]c1=O; 9.4
Cc1cn([C@H]2C[C@H](N=[N+]=[N-])[C@@H](COC(=O)C(=O)N[C@@H](Cc3c[nH]c4ccccc34)C(=O)O)O2)c(=O)[nH]c1=O; 17.6
Cc1cn([C@H]2C[C@H](N=[N+]=[N-])[C@@H](COC(=O)C(=O)N[C@@H](CC(C)C)C(=O)O)O2)c(=O)[nH]c1=O; 5.2

a = CC[C@H](C)[C@H](NC(=O)C(=O)OC[C@H]1O[C@@H](n2cc(C)c(=O)[nH]c2=O)C[C@@H]1N=[N+]=[N-])C(=O)O
b = Cc1cn([C@H]2C[C@H](N=[N+]=[N-])[C@@H](COC(=O)C(=O)N[C@H](C(=O)O)C(C)C)O2)c(=O)[nH]c1=O
c = Cc1cn([C@H]2C[C@H](N=[N+]=[N-])[C@@H](COC(=O)C(=O)O)O2)c(=O)[nH]c1=O
**Q:** Order these by Activity, descending, and give the full ranking. Labels, requested order.
**A:** b, c, a
(b: 15.2%, c: 7%, a: 4.6%)

---

testedSystem: Albumin (Homo sapiens, UniProt P02768)
testName: Binding affinity to fatty acid complexed human serum albumin
Type: ADME
cond: isolated protein
measurementName: Activity (%)

Cc1cn([C@H]2C[C@H](N=[N+]=[N-])[C@@H](COC(=O)C(=O)N[C@@H](CC(C)C)C(=O)O)O2)c(=O)[nH]c1=O; 8.9
CC[C@H](C)[C@H](NC(=O)C(=O)OC[C@H]1O[C@@H](n2cc(C)c(=O)[nH]c2=O)C[C@@H]1N=[N+]=[N-])C(=O)O; 7.6
Cc1cn([C@H]2C[C@H](N=[N+]=[N-])[C@@H](COC(=O)C(=O)O)O2)c(=O)[nH]c1=O; 10.4

P = Cc1cn([C@H]2C[C@H](N=[N+]=[N-])[C@@H](COC(=O)C(=O)N[C@@H](Cc3ccc(O)cc3)C(=O)O)O2)c(=O)[nH]c1=O
Q = Cc1cn([C@H]2C[C@H](N=[N+]=[N-])[C@@H](COC(=O)C(=O)N[C@@H](Cc3ccccc3)C(=O)O)O2)c(=O)[nH]c1=O
**Q:** Lowest Activity? choose P or Q Which one? Tell me its label.
**A:** Q
(Q: 5.5%, P: 10.4%)

---

testedSystem: Albumin (Homo sapiens, UniProt P02768)
testName: Binding affinity to defatted human serum albumin relative to zidovudine
Assay type: ADME
cond: isolated protein
measurementName: Activity

Solved entries (count: 5):
Cc1cn([C@H]2C[C@H](N=[N+]=[N-])[C@@H](COC(=O)C(=O)N[C@@H](Cc3ccccc3)C(=O)O)O2)c(=O)[nH]c1=O; 1.12
Cc1cn([C@H]2C[C@H](N=[N+]=[N-])[C@@H](COC(=O)C(=O)N[C@@H](CC(C)C)C(=O)O)O2)c(=O)[nH]c1=O; 2.35
Cc1cn([C@H]2C[C@H](N=[N+]=[N-])[C@@H](COC(=O)C(=O)N3CCC[C@H]3C(=O)O)O2)c(=O)[nH]c1=O; 0.9
Cc1cn([C@H]2C[C@H](N=[N+]=[N-])[C@@H](COC(=O)c3ccncc3)O2)c(=O)[nH]c1=O; 1.64
Cc1cn([C@H]2C[C@H](N=[N+]=[N-])[C@@H](COC(=O)C(=O)N[C@H](C(=O)O)C(C)C)O2)c(=O)[nH]c1=O; 1.47

A = Cc1cn([C@H]2C[C@H](N=[N+]=[N-])[C@@H](COC(=O)C(=O)N[C@@H](Cc3c[nH]c4ccccc34)C(=O)O)O2)c(=O)[nH]c1=O
B = CC[C@H](C)[C@H](NC(=O)C(=O)OC[C@H]1O[C@@H](n2cc(C)c(=O)[nH]c2=O)C[C@@H]1N=[N+]=[N-])C(=O)O
**Q:** Lowest Activity? choose A or B Which one? Tell me its label.
**A:** A

P = Cc1cn([C@H]2C[C@H](N=[N+]=[N-])[C@@H](COC(=O)C(=O)O)O2)c(=O)[nH]c1=O
Q = Cc1cn([C@H]2C[C@H](N=[N+]=[N-])[C@@H](COC(=O)C(=O)N[C@@H](Cc3ccc(O)cc3)C(=O)O)O2)c(=O)[nH]c1=O
**Q:** Lowest Activity? choose P or Q Which one? Tell me its label.
**A:** Q

---

testedSystem: Albumin (Homo sapiens, UniProt P02768)
testName: Binding affinity to fatty acid complexed human serum albumin
Type: ADME
cond: isolated protein
measurementName: Ka (L/mol)

Solved entries (count: 3):
Cc1cn([C@H]2C[C@H](N=[N+]=[N-])[C@@H](COC(=O)C(=O)N[C@H](C(=O)O)C(C)C)O2)c(=O)[nH]c1=O; 944.6
Cc1cn([C@H]2C[C@H](N=[N+]=[N-])[C@@H](COC(=O)C(=O)N[C@@H](Cc3ccccc3)C(=O)O)O2)c(=O)[nH]c1=O; 436.6
Cc1cn([C@H]2C[C@H](N=[N+]=[N-])[C@@H](COC(=O)C(=O)O)O2)c(=O)[nH]c1=O; 811.7

I = Cc1cn([C@H]2C[C@H](N=[N+]=[N-])[C@@H](COC(=O)C(=O)N[C@@H](Cc3ccc(O)cc3)C(=O)O)O2)c(=O)[nH]c1=O
II = CC[C@H](C)[C@H](NC(=O)C(=O)OC[C@H]1O[C@@H](n2cc(C)c(=O)[nH]c2=O)C[C@@H]1N=[N+]=[N-])C(=O)O
III = Cc1cn([C@H]2C[C@H](N=[N+]=[N-])[C@@H](COC(=O)C(=O)N[C@@H](Cc3c[nH]c4ccccc34)C(=O)O)O2)c(=O)[nH]c1=O
IV = Cc1cn([C@H]2C[C@H](N=[N+]=[N-])[C@@H](COC(=O)c3ccncc3)O2)c(=O)[nH]c1=O
V = Cc1cn([C@H]2C[C@H](N=[N+]=[N-])[C@@H](COC(=O)C(=O)N3CCC[C@H]3C(=O)O)O2)c(=O)[nH]c1=O
**Q:** Order these by Ka, descending, and give the full ranking. Labels, requested order.
**A:** IV, III, V, I, II
(IV: 3277.3 L/mol, III: 2172.1 L/mol, V: 1341.9 L/mol, I: 890.9 L/mol, II: 575.2 L/mol)
